The reported numbers originate from PubChem BioAssay AID2683.

molecules and their reported EC50
System: S. cerevisiae SKY197-pL101 polyadenylation reporter, beta-gal luminescence, 9 h
Test summary: elevated beta-gal reporter luminescence in yeast – S. cerevisiae SKY197-pL101, polyadenylation inhibitor project, dose response (AID 2683)
Activity calls are given as the source filed them.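 The calls were made as follows: active = rising-signal curve whose EC50 is at most tenfold above the top concentration tested; inconclusive = flat fit with activity between 30% and 70%, or invalid fit; inactive = the rest.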

Guide cases for EC50, answers given:
>>> df
                           smiles_structure             reading
0  N#C/C(=C\c1cccc([N+](=O)[O-])c1)c1nc2ccccc2[nH]1  > 12 µM (inactive)
1   Cc1ccc2nc(/C(C#N)=C/c3ccc(C)o3)[nH]c2c1  > 12 µM (inactive)
2         N#C/C(=C\c1ccco1)c1nc2ccccc2[nH]1  > 12 µM (inactive)

For `N#C/C(=C\c1ccc([N+](=O)[O-])o1)c1nc2ccccc2[nH]1` the molecule record lists EC50 as 10.8 µM

Summary for this molecule, `Cc1cccc2[nH]c(/C(C#N)=C/c3ccc([N+](=O)[O-])o3)nc12` : EC50 is 5.83 µM

Field EC50 (entry `N#C/C(=C/c1ccc([N+](=O)[O-])o1)c1nc2ccccc2[nH]1` ) reads 8.25 µM
